Items are presented alongside their recorded IC50.
Test system: MDA 468 mammary (ER-/EGFR+)
Experiment: In vitro cytotoxicity assay
Type: cell-based, human
Settings: Homo sapiens, column B; read-out: MDA 468 B IC50 at >micromolar concentrations
Express it in µM; write the number only.

Some solved cases for reference:
compound	assay.target	unit.abbrev	IC50
Nc1ccc(-c2nc3cc(OCc4ccccc4)ccc3s2)c(Cl)c1	MDA 468 mammary (ER-/EGFR+)	µM	2.84
Nc1ccc(-c2nc3cc(O)cc(O)c3s2)cc1 [DF162Eb]	MDA 468 mammary (ER-/EGFR+)	µM	16.3

Now consider a different compound.
Task item: Given the compound COc1ccc2nc(-c3ccc(N)cc3)sc2c1 , what is its reported IC50?
Reply: 7.64

These data points were gathered from patent EP0721336B1.
